biological target: T1, cynomolgus FOLR1 protein, His Tag (ACRO F01-C52H8) (cynomolgus, UniProt A0A2K5U044 25-233); assay: ELISA, coated cyno FOLR1-His, supernatant 5x
T1 construct: Bought protein coated on ELISA plates; also called Cynomolgus/Rhesus macaque FOLR1, Protein, His Tag; not shown: His tag
T1 sequence (A0A2K5U044 entry or part of it): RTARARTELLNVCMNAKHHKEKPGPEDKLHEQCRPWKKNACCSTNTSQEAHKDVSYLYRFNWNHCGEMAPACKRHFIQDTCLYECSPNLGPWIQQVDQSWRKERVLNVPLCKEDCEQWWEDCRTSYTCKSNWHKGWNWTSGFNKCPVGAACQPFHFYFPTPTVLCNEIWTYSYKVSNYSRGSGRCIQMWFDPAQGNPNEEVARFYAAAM
quantity: OD450 (OD450)
Answer format: numeric, OD450 implied, no suffix.

- binder: "F100 (antibody, V domains shown, Tested as full-length IgG with an IgG1 Fc from HEK293, as supernatant or purified; also called clone F100; anti-FOLR1 antibody F100) VH: EVQLLESGGGVVQPGRSLRLSCAASGFTFSSYGMHWVRQAPGKGLEWVAVISYDGSNKYYADSVKGRFTISRPNSKNTLYLQMNSLRAEDTAVYYCARPRAYYGAYGSSFDYWGQGTQVTVSS VL: EIVMTQSPSSVSASVGDRVAITCRASQGISSWLAWYQQKPGKAPKLLIYAASSLQSGVPSRFSGSGSGTDFTLTISSLQPEDFATYYCQQSYSTPLTFGGGTKVDIK"
  OD450, OD450: 1.03
- binder: "F26 (antibody, V domains shown, Tested as full-length IgG with an IgG1 Fc from HEK293, as supernatant or purified; also called clone F26; anti-FOLR1 antibody F26) VH: EVQLLESGGGVVQRGRSLRLSCAASGFTFSSYGMHWVRQAPGKGLEWVAVISYDGSNKYYADSVKGRFTISRDNSKNTLYLPMNSLRAEDTAVYYCARPRAYYGAYGSSFDYWGQGTQVTVSS VL: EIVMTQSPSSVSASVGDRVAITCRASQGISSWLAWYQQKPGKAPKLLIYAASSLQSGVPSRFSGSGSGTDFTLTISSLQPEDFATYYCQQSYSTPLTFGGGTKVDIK"
  OD450, OD450: 1.21

Okay, now this binder:
Inquiry: Look up OD450: F1 (antibody, V domains shown, also called clone F1; anti-FOLR1 antibody F1) VH: EVQLLESGGGVVQPGRSLRLSCAASGFTFSSYGMHWVRQAPGKGLEWVAVISYDGSNKYYADSVKGRFTISRDNSKNTLYLQMNSLRAEDTAVYYCARPRAYYGAYGSSFDYWGQGTQVTVSS VL: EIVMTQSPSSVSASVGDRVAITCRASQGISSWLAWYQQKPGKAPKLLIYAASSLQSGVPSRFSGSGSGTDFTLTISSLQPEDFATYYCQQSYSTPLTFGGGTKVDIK
Reply text: 1.26
